- Target System: WT PfMDH (Plasmodium falciparum, UniProt Q6VVP7)
- Construct: The full-length WT PfMDH gene was cloned into pETM-13; made in house; host or cells: E. coli Rosetta 2 (DE3) pLysS
- Sequence (Q6VVP7 entry or part of it): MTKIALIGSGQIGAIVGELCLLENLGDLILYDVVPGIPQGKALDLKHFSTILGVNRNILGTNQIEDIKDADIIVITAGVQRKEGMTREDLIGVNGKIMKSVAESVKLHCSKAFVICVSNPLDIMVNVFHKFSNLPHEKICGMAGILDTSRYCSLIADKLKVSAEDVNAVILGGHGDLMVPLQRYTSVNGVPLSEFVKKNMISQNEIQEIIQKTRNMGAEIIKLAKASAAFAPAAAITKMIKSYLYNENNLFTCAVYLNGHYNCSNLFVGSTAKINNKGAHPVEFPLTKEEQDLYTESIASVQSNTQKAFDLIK
- Test Method Notes: Activity screening of 4DT / 4-phenylthiazol-2-amine derivatives (oxidation of malate, absorbance at 340 nm)
- Format: biochemical
- Condition Context: read-out: enzyme activity
Form field: remaining activity at 500 µM (one value per entry).
Hi! Could you send only the number? It should be in %, unit omitted.

Solved entries:
INSERT INTO assay_data (chemical_structure, target_system, metric_name, recorded_number) VALUES
  ('Nc1nc(-c2ccc(Cl)c(Cl)c2)cs1', 'WT PfMDH (Plasmodium falciparum, UniProt Q6VVP7)', 'remaining activity at 500 µM', 23),
  ('Cc1ccc(-c2csc(N)n2)cc1C', 'WT PfMDH (Plasmodium falciparum, UniProt Q6VVP7)', 'remaining activity at 500 µM', 52),
  ('Nc1cc(-c2ccccc2)[nH]n1', 'WT PfMDH (Plasmodium falciparum, UniProt Q6VVP7)', 'remaining activity at 500 µM', 53),
  ('CC(C)(C)OC(=O)CNC(=O)c1cc(-c2cccs2)on1', 'WT PfMDH (Plasmodium falciparum, UniProt Q6VVP7)', 'remaining activity at 500 µM', 20),
  ('O=C(O)c1cc(-c2cccs2)on1', 'WT PfMDH (Plasmodium falciparum, UniProt Q6VVP7)', 'remaining activity at 500 µM', 60),
  ('O=C(O)c1nc(-c2ccccc2)cs1', 'WT PfMDH (Plasmodium falciparum, UniProt Q6VVP7)', 'remaining activity at 500 µM', 65);

Given `Nc1nc(-c2ccc(F)cc2)cs1` , state its recorded remaining activity at 500 µM.
51

Item under review: `NCc1ccc(-c2csnn2)cc1` . Reported remaining activity at 500 µM?
65

Field request: remaining activity at 500 µM | item: `Nc1nc(-c2ccc(F)c(F)c2)cs1`
62
